# method: MTT assay (cytotoxicity)
# Type: cell-based
# particulars: human; H9 cells, five days
measurement_type: CC50 at 120 h

-- ask Bench note: what CC50 at 120 h did CCN1c2ncccc2-c2ncc(C)n2-c2ccc(-c3cn[nH]c3)nc21 show?
-- reply > 100 µM
